# maps each entry to its log10(IC50)
target: human JAK2 (a.a. 828-1132) (Homo sapiens); construct: JAK2 (a.a. 828-1132); His tag (N); made in house; host or cells: insect cells (baculovirus); test: In vitro JAK kinase assay (HTRF, phosphorylation of a biotinylated peptide), JAK2; format: biochemical; conditions: method AA1 (30 μM ATP) or AA2 (1000 μM ATP), not stated per value
Sequence (O60674 828-1132): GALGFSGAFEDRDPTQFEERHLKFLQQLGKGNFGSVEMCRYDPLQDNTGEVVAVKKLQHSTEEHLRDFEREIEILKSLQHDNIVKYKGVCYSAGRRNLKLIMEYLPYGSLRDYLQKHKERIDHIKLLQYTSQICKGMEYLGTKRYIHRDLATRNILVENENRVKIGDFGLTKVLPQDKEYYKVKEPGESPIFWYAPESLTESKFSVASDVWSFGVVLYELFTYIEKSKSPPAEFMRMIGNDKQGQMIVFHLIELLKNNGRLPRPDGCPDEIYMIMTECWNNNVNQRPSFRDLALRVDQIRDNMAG
Structures can show the parent of a compound that is named as a salt.
RECORDED ENDPOINT: log10(IC50) (log10 of the value in nM)

                                   molecule  observed_measurement
0  CNC(=O)N1CCC(CC(=O)Nc2ccc3cc2CCc2cncc(c2)Nc2ncc(Cl)c(n2)N3)CC1 [Example A100, bis(trifluoroacetate)]                  0.76
1  CC(C)S(=O)(=O)N1CCC(CC(=O)Nc2ccc3cc2CCc2cccc(c2)Nc2ncc(Cl)c(n2)N3)CC1 [Example A82, trifluoroacetate]                  0.57
2  O=C(CC1CCN(S(=O)(=O)c2cccnc2)CC1)Nc1ccc2cc1CCc1cccc(c1)Nc1ncc(Cl)c(n1)N2 [Example A212, bis(trifluoroacetate)]                  0.93
3  O=C(Nc1ccc2cc1CCc1cccc(c1)Nc1ncc(Cl)c(n1)N2)[C@@H]1CCN(C(=O)NC2CCCC2)C1 [Example A63, trifluoroacetate]                  0.40
4  CC(Oc1ccc2cc1CCc1cccc(c1)Nc1ncc(Cl)c(n1)N2)C(=O)Nc1ccccc1 (stereo not shown) [Example A16, trifluoroacetate]                  1.00
5  O=C(Nc1ccc2cc1CCc1cccc(c1)Nc1ncc(Cl)c(n1)N2)C1CCCN(C(=O)NC2CCCC2)C1 (stereo not shown) [Example A62, trifluoroacetate]                  0.75
6  O=C(Nc1ccc2cc1CCc1cccc(c1)Nc1ncc(Cl)c(n1)N2)C1CCNCC1 [Example A28, bis(trifluoroacetate)]                  1.79
7  N#Cc1ccc(NC(=O)N2CCC(CC(=O)Nc3ccc4cc3CCc3cncc(c3)Nc3ncc(Cl)c(n3)N4)CC2)cc1 [Example A143, bis(trifluoroacetate)]                  0.26

----------
target: human JAK3 (a.a. 781-1124) (Homo sapiens, UniProt P52333); construct: JAK3 (a.a. 781-1124); His tag (N); made in house; host or cells: insect cells (baculovirus); assay: In vitro JAK kinase assay (HTRF, phosphorylation of a biotinylated peptide), JAK3; assay type: biochemical; settings: method AA1 (3 μM ATP) or AA2 (1000 μM ATP), not stated per value
Sequence (P52333 781-1124): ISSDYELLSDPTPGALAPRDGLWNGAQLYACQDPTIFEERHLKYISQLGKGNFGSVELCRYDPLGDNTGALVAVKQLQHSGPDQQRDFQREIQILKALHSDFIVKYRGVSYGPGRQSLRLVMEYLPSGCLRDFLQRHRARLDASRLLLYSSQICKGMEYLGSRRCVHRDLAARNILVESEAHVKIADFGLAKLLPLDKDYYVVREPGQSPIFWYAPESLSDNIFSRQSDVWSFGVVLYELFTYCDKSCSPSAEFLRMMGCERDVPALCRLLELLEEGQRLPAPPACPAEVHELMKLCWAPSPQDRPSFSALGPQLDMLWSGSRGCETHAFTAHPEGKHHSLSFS
# maps each entry to its IC50
RECORDED ENDPOINT: IC50

>>> print(df.to_string())
                                   compound  observed_measurement
0  Cc1nc(S(=O)(=O)N2CCC(CC(=O)Nc3ccc4cc3CCc3cncc(c3)Nc3ncc(Cl)c(n3)N4)CC2)cn1C [Example A230, bis(trifluoroacetate)]              > 0.4 µM
1  Cc1cccc(NC(=O)N2CCC(CC(=O)Nc3ccc4cc3CCc3cncc(c3)Nc3ncc(Cl)c(n3)N4)CC2)c1 [Example A150, bis(trifluoroacetate)]              > 0.1 µM
2  O=C(CC1CCN(S(=O)(=O)c2ccccc2F)CC1)Nc1ccc2cc1CCc1cncc(c1)Nc1ncc(Cl)c(n1)N2 [Example A226, bis(trifluoroacetate)]              > 0.4 µM
3  Cc1ccc(NC(=O)N2CCC(CC(=O)Nc3ccc4cc3CCc3cncc(c3)Nc3ncc(Cl)c(n3)N4)CC2)cc1 [Example A151, bis(trifluoroacetate)]              > 0.1 µM
4  Cc1ccccc1S(=O)(=O)N1CCC(CC(=O)Nc2ccc3cc2CCc2cncc(c2)Nc2ncc(Cl)c(n2)N3)CC1 [Example A225, bis(trifluoroacetate)]              > 0.4 µM

Values from patent US8871753B2
